conditions: in isopropanol, 308.15 K
observation_type: solubility (mole fraction)
// return a plain number; no unit text

// query What measured solubility (mole fraction) goes with CC1(C)[C@@H](O)CC[C@]2(C)[C@H]3C(=O)C=C4[C@@H]5C[C@@](C)(C(=O)O)CC[C@]5(C)CC[C@@]4(C)[C@]3(C)CC[C@@H]12 ?
// result 0.0149

* * *

conditions: in isobutyl acetate, 293.15 K
observation_type: solubility (mole fraction)
// return a plain number; no unit text

// query What measured solubility (mole fraction) goes with CC1(C)[C@@H](O)CC[C@]2(C)[C@H]3C(=O)C=C4[C@@H]5C[C@@](C)(C(=O)O)CC[C@]5(C)CC[C@@]4(C)[C@]3(C)CC[C@@H]12 ?
// result 0.00242

* * *

conditions: in THF, 293.15 K
observation_type: solubility (mole fraction)
// return a plain number; no unit text

// query What measured solubility (mole fraction) goes with CC1(C)[C@@H](O)CC[C@]2(C)[C@H]3C(=O)C=C4[C@@H]5C[C@@](C)(C(=O)O)CC[C@]5(C)CC[C@@]4(C)[C@]3(C)CC[C@@H]12 ?
// result 0.078

* * *

settings: in methanol, 308.15 K
observation_type: solubility (mole fraction)

// query What measured solubility (mole fraction) goes with CC1(C)[C@@H](O)CC[C@]2(C)[C@H]3C(=O)C=C4[C@@H]5C[C@@](C)(C(=O)O)CC[C@]5(C)CC[C@@]4(C)[C@]3(C)CC[C@@H]12 ?
// result 0.00486

* * *

conditions: in THF, 278.15 K
observation_type: solubility (mole fraction)
// return a plain number; no unit text

// query What measured solubility (mole fraction) goes with CC1(C)[C@@H](O)CC[C@]2(C)[C@H]3C(=O)C=C4[C@@H]5C[C@@](C)(C(=O)O)CC[C@]5(C)CC[C@@]4(C)[C@]3(C)CC[C@@H]12 ?
// result 0.0764

* * *

conditions: in n-butyl acetate, 283.15 K
observation_type: solubility (mole fraction)

// query What measured solubility (mole fraction) goes with CC1(C)[C@@H](O)CC[C@]2(C)[C@H]3C(=O)C=C4[C@@H]5C[C@@](C)(C(=O)O)CC[C@]5(C)CC[C@@]4(C)[C@]3(C)CC[C@@H]12 ?
// result 0.00297

* * *

conditions: in THF, 313.15 K
observation_type: solubility (mole fraction)
// return a plain number; no unit text

// query What measured solubility (mole fraction) goes with CC1(C)[C@@H](O)CC[C@]2(C)[C@H]3C(=O)C=C4[C@@H]5C[C@@](C)(C(=O)O)CC[C@]5(C)CC[C@@]4(C)[C@]3(C)CC[C@@H]12 ?
// result 0.0815

* * *

conditions: in DMF, 303.15 K
observation_type: solubility (mole fraction)
// return a plain number; no unit text

// query What measured solubility (mole fraction) goes with CC1(C)[C@@H](O)CC[C@]2(C)[C@H]3C(=O)C=C4[C@@H]5C[C@@](C)(C(=O)O)CC[C@]5(C)CC[C@@]4(C)[C@]3(C)CC[C@@H]12 ?
// result 0.0598

* * *

conditions: in n-butyl acetate, 303.15 K
observation_type: solubility (mole fraction)
// return a plain number; no unit text

// query What measured solubility (mole fraction) goes with CC1(C)[C@@H](O)CC[C@]2(C)[C@H]3C(=O)C=C4[C@@H]5C[C@@](C)(C(=O)O)CC[C@]5(C)CC[C@@]4(C)[C@]3(C)CC[C@@H]12 ?
// result 0.00344

* * *

conditions: in DMF, 283.15 K
observation_type: solubility (mole fraction)
// return a plain number; no unit text

// query What measured solubility (mole fraction) goes with CC1(C)[C@@H](O)CC[C@]2(C)[C@H]3C(=O)C=C4[C@@H]5C[C@@](C)(C(=O)O)CC[C@]5(C)CC[C@@]4(C)[C@]3(C)CC[C@@H]12 ?
// result 0.0474

* * *

conditions: in ethanol, 293.15 K
observation_type: solubility (mole fraction)
// return a plain number; no unit text

// query What measured solubility (mole fraction) goes with CC1(C)[C@@H](O)CC[C@]2(C)[C@H]3C(=O)C=C4[C@@H]5C[C@@](C)(C(=O)O)CC[C@]5(C)CC[C@@]4(C)[C@]3(C)CC[C@@H]12 ?
// result 0.0132

* * *

settings: in THF, 298.15 K
observation_type: solubility (mole fraction)
// return a plain number; no unit text

// query What measured solubility (mole fraction) goes with CC1(C)[C@@H](O)CC[C@]2(C)[C@H]3C(=O)C=C4[C@@H]5C[C@@](C)(C(=O)O)CC[C@]5(C)CC[C@@]4(C)[C@]3(C)CC[C@@H]12 ?
// result 0.0787

* * *

details: in isobutyl acetate, 308.15 K
observation_type: solubility (mole fraction)
// return a plain number; no unit text

// query What measured solubility (mole fraction) goes with CC1(C)[C@@H](O)CC[C@]2(C)[C@H]3C(=O)C=C4[C@@H]5C[C@@](C)(C(=O)O)CC[C@]5(C)CC[C@@]4(C)[C@]3(C)CC[C@@H]12 ?
// result 0.00273

* * *

conditions: in n-propanol, 293.15 K
observation_type: solubility (mole fraction)

// query What measured solubility (mole fraction) goes with CC1(C)[C@@H](O)CC[C@]2(C)[C@H]3C(=O)C=C4[C@@H]5C[C@@](C)(C(=O)O)CC[C@]5(C)CC[C@@]4(C)[C@]3(C)CC[C@@H]12 ?
// result 0.0174

* * *

conditions: in n-butyl acetate, 318.15 K
observation_type: solubility (mole fraction)
// return a plain number; no unit text

// query What measured solubility (mole fraction) goes with CC1(C)[C@@H](O)CC[C@]2(C)[C@H]3C(=O)C=C4[C@@H]5C[C@@](C)(C(=O)O)CC[C@]5(C)CC[C@@]4(C)[C@]3(C)CC[C@@H]12 ?
// result 0.00359

* * *

settings: in methanol, 278.15 K
observation_type: solubility (mole fraction)
// return a plain number; no unit text

// query What measured solubility (mole fraction) goes with CC1(C)[C@@H](O)CC[C@]2(C)[C@H]3C(=O)C=C4[C@@H]5C[C@@](C)(C(=O)O)CC[C@]5(C)CC[C@@]4(C)[C@]3(C)CC[C@@H]12 ?
// result 0.00229

* * *

details: in THF, 303.15 K
observation_type: solubility (mole fraction)
// return a plain number; no unit text

// query What measured solubility (mole fraction) goes with CC1(C)[C@@H](O)CC[C@]2(C)[C@H]3C(=O)C=C4[C@@H]5C[C@@](C)(C(=O)O)CC[C@]5(C)CC[C@@]4(C)[C@]3(C)CC[C@@H]12 ?
// result 0.0794

* * *

settings: in methyl acetate, 313.15 K
observation_type: solubility (mole fraction)
// return a plain number; no unit text

// query What measured solubility (mole fraction) goes with CC1(C)[C@@H](O)CC[C@]2(C)[C@H]3C(=O)C=C4[C@@H]5C[C@@](C)(C(=O)O)CC[C@]5(C)CC[C@@]4(C)[C@]3(C)CC[C@@H]12 ?
// result 0.00293

* * *

conditions: in acetone, 283.15 K
observation_type: solubility (mole fraction)
// return a plain number; no unit text

// query What measured solubility (mole fraction) goes with CC1(C)[C@@H](O)CC[C@]2(C)[C@H]3C(=O)C=C4[C@@H]5C[C@@](C)(C(=O)O)CC[C@]5(C)CC[C@@]4(C)[C@]3(C)CC[C@@H]12 ?
// result 0.00347

* * *

details: in THF, 323.15 K
observation_type: solubility (mole fraction)
// return a plain number; no unit text

// query What measured solubility (mole fraction) goes with CC1(C)[C@@H](O)CC[C@]2(C)[C@H]3C(=O)C=C4[C@@H]5C[C@@](C)(C(=O)O)CC[C@]5(C)CC[C@@]4(C)[C@]3(C)CC[C@@H]12 ?
// result 0.0842

* * *

details: in methanol, 293.15 K
observation_type: solubility (mole fraction)

// query What measured solubility (mole fraction) goes with CC1(C)[C@@H](O)CC[C@]2(C)[C@H]3C(=O)C=C4[C@@H]5C[C@@](C)(C(=O)O)CC[C@]5(C)CC[C@@]4(C)[C@]3(C)CC[C@@H]12 ?
// result 0.00329

* * *

conditions: in isobutyl acetate, 313.15 K
observation_type: solubility (mole fraction)
// return a plain number; no unit text

// query What measured solubility (mole fraction) goes with CC1(C)[C@@H](O)CC[C@]2(C)[C@H]3C(=O)C=C4[C@@H]5C[C@@](C)(C(=O)O)CC[C@]5(C)CC[C@@]4(C)[C@]3(C)CC[C@@H]12 ?
// result 0.00278

* * *

details: in 1,4-dioxane, 288.15 K
observation_type: solubility (mole fraction)

// query What measured solubility (mole fraction) goes with CC1(C)[C@@H](O)CC[C@]2(C)[C@H]3C(=O)C=C4[C@@H]5C[C@@](C)(C(=O)O)CC[C@]5(C)CC[C@@]4(C)[C@]3(C)CC[C@@H]12 ?
// result 0.0269
